MIC values, listed per item
system: S. marcescens W-134; assay: MIC, agar dilution, standard method of Japan Society of Chemotherapy; type: cell-based; conditions: Serratia marcescens, W134, Heart Infusion agar, 37° C., 20 hours, 10^4 cells/plate (10^6 cells/ml)

A selection of reference data follows.
C[C@H]1COc2c(C3(N)CC3)c(F)cc3c(=O)c(C(=O)O)cn1c23.Cl ... ≤ 0.05 µg/mL
CC1COc2c(C3(N)CC3)c(F)cc3c(=O)c(C(=O)O)cn1c23.Cl (centres unmarked) ... 0.1 µg/mL
Br.C=C1COc2c(C3(N)CC3)c(F)cc3c(=O)c(C(=O)O)cn1c23 ... 0.2 µg/mL
Cl.NC1(c2c(F)cc3c(=O)c(C(=O)O)cn4c3c2OCC4CF)CC1 (centres unmarked) ... 0.1 µg/mL
CC1COc2c(C3(N)CC3)c(F)c(F)c3c(=O)c(C(=O)O)cn1c23.Cl (centres unmarked) ... 0.2 µg/mL
CC[C@H]1COc2c(C3(N)CC3)c(F)cc3c(=O)c(C(=O)O)cn1c23.Cl ... 0.1 µg/mL
CC1COc2c(C3(N)CC3)c(F)c(N)c3c(=O)c(C(=O)O)cn1c23.Cl (centres unmarked) ... 0.2 µg/mL

Okay, now this compound:
Look up MIC: CNC1(c2c(F)cc3c(=O)c(C(=O)O)cn4c3c2OC[C@@H]4C)CC1.Cl
0.1 µg/mL
